Reference source: patent US20190240316A1

Listing: EC50 of selected binders
system_under_test: T1, recombinant post-fusion RSV strain A2 F protein (human respiratory syncytial virus …, UniProt P03420 26-109; P03420 147-513)
T1 construct: Viral fusion glycoprotein, trimer of protomers (each cleaved into two disulfide-linked fragments); also called RSV A2; post-fusion RSV A2 F
assay_notes: ELISA on coated antigen
observed_property: EC50 (µg/mL)

- binder: "mAb 12I1 (antibody, V domains shown, Non-neutralizing, antigenic site VII) VH: QVQLVQSGGGVVQPGQSLRLSCAASGFSFSDYPIHWVRQAPGKGLEWVAGISYYGSNKFYADSVRGRFTISRDTSKNTFNLQMNSLKSEDTAVYYCARDGNPPRFLEYFDYWGQGTLVTVSS VL: QPVVTQPRSVSGSPGQSVTISCTGSSSDVGGYNFVSWYRHHPGKAPKLLIYHVTKRPSGVPDRFSGSKSGNTASLTISGLQAEDEADYYCCSYAGSYTYVLFGGGTKLTVL"
  observed_property: "EC50"
  endpoint_value: 0.026
- binder: "motavizumab (antibody, V domains shown) VH: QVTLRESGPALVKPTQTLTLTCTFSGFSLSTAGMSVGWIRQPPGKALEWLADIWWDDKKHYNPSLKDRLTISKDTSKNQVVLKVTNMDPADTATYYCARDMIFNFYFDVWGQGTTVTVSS VL: DIQMTQSPSTLSASVGDRVTITCSASSRVGYMHWYQQKPGKAPKLLIYDTSKLASGVPSRFSGSGSGTEFTLTISSLQPDDFATYYCFQGSGYPFTFGGGTKVEIK"
  observed_property: "EC50"
  endpoint_value: 0.03
- binder: "mAb 14N4 (antibody, V domains shown) VH: QVQLVESGGGLIQPGGSLRLSCAVSGFTVSSKYMTWVRQAPGKGLEWVSVIYGGGSTYYADSVVGRFTISRDNSKNTLYLQMNSLRAEDTAVYYCASRLGVRATTGDLDYWGQGTLVTVSS VL: QIVMTQSPSTLSASVGDRVTITCRASQSISSWLAWYQQKPGKAPKLLIYDASSLESGVPSRFSGSGSGTEFTLTISSLQPDDFATYYCQQYNTYSWWTFGQGTKVEIK"
  observed_property: "EC50"
  endpoint_value: 0.078
- binder: "mAb 13A8 (antibody, V domains shown) VH: QVQLVESGGGVVQPGKSLRLSCAASGYIFSSYDMHWVRQAPGKGLEWVAVISFDGTTQHYADSVRGRFTVSRDNSQNTVFLQMNSLRPEDTAVYYCVKEYVIVSTFFDYWGQGTLVTVSS VL: DIVMTQSPSSLSASVGDRVTITCRASQGIRNALGWYQHKPGKAPKVLIYAASRLQSGVPSRFSGSGSGTDFTLTISSLQPEDFATYYCLQDFNYPWTFGHGTKVEIK"
  observed_property: "EC50"
  endpoint_value: 0.082
- binder: "mAb 14C16 (antibody, V domains shown) VH: QVQLGESGPALVKPTQTLTLTCTFSGFSLSTSEMCVSWIRQPPGKALEWLALIDWDGDKFFSTSLQSRLTISKSPSNNQVVLTMTNMDPVDSGTYFCARSTVRRSSGYYYYVLDVWGQGTLVTVSS VL: QIVMTQSPSSLSASVGDRVTISCRASQSIGTYVNWYQHKPGKAPKVLISGASNLHSGVPSRFSGSGSGTDFTLTISSLQPEDFATYYCQQSYSPLTFGGGTTVEMK"
  observed_property: "EC50"
  endpoint_value: 0.019
- binder: "mAb 9J5 (antibody, V domains shown) VH: QVQLVQSGAEVKKPGSSVTVSCKASGGSFTNYAFSWVRQAPGQGLEWMGGIIPLLNMPNYAQKFRGRVTISADQSTTTAYMELSRLTSEDTAIYFCARGGQVGDFIVLRHFDSWGQGTLVTVSS VL: TLSCRASESVSNYLAWYQQKPGQTPRLLIYGASTRATGIPARFSGSGSGSEFTLTISSLQSEDFAVYYCQQYNDWPRFSFGQGTKLEIK"
  observed_property: "EC50"
  endpoint_value: 0.03
